This listing pairs compounds with measured Vd.
test: Pharmacokinetics after intravenous and oral administration in rats; format: in vivo; conditions: rat, plasma, iv dosing, dose 1 mg/kg (Ex. 27: 0.72 mg/kg), read-out: Vss
measured parameter: Vd (L/kg)

* Cn1cc(Nc2ncc(Cl)c(NC3CC4CN(S(C)(=O)=O)CC4C3)n2)cn1 (centres unmarked) | 2.06
* Cn1cc(Nc2ncc(Cl)c(NC3CCC4(CC3)CCN(c3ccc(C#N)cn3)CC4)n2)cn1 | 1.74
* CC(=O)N1CC2CC(Nc3nc(Nc4cc(C5CC5)[nH]n4)ncc3Cl)CC2C1 (centres unmarked) | 2.46
* Cc1cnc(Nc2cnn(C)c2)nc1NC1CN(C(=O)CC#N)CC12CCCC2 (centres unmarked) | 2.85
* N#CCC(=O)N1CC2CC(Nc3nc(Nc4cnn(CCO)c4)ncc3Cl)CC2C1 (centres unmarked) | 1.09

###

experiment: Pharmacokinetics after intravenous and oral administration in rats; assay type: in vivo; conditions: oral bioavailability
measured parameter: F (%)

* CC(=O)N1CC2CC(Nc3nc(Nc4cnn(C)c4)ncc3Cl)CC2C1 (centres unmarked) | 41.3
* Cn1cc(Nc2ncc(Cl)c(NC3CCC4(CC3)CCN(C(=O)CC#N)C4)n2)cn1 (single isomer, unassigned) [Ex. 14B] | 12.7
* Cn1nc(C2CC2)cc1Nc1ncc(Cl)c(NC2CC3CN(C(=O)CC#N)CC3C2)n1 (centres unmarked) | 31.3
* Cc1cnc(Nc2cnn(C)c2)nc1NC1CC2CN(c3ccc(C#N)cn3)CC2C1 (centres unmarked) | 36.9
* Cc1cc(Nc2ncc(Cl)c(NC3CCC4(CC3)CCN(C(=O)CC#N)CC4)n2)nn1C | 31.3

###

# IC50 measurements, system: JAK3 (h) (Homo sapiens (Human))
# Sequence (P52333 whole entry): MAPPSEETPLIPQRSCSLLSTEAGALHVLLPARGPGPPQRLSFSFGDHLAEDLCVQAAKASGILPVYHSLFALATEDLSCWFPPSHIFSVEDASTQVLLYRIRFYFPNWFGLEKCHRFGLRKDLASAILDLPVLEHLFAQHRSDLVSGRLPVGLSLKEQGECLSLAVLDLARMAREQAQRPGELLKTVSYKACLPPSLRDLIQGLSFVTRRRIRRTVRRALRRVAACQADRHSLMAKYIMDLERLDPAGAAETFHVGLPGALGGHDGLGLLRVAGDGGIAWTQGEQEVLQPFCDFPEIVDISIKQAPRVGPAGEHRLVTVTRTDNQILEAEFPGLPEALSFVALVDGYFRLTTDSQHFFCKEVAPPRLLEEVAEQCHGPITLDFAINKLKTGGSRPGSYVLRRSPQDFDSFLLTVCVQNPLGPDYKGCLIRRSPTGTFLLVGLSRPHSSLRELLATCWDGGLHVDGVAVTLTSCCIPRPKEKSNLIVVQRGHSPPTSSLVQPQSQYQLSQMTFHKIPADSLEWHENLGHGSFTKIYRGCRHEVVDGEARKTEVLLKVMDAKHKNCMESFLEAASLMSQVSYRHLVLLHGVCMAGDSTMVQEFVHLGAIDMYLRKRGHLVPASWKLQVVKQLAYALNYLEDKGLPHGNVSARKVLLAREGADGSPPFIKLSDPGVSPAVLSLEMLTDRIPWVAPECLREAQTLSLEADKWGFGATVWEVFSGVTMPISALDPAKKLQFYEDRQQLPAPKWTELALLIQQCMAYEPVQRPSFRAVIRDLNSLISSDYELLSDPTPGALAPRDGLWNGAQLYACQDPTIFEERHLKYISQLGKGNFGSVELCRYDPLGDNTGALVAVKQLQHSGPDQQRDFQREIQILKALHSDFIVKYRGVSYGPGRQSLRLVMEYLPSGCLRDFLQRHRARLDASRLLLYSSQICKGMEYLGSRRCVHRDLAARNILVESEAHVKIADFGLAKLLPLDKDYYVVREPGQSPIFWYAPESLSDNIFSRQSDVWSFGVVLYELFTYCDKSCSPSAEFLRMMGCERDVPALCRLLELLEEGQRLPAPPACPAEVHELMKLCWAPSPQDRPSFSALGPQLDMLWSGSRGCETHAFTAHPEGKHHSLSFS
measured parameter: IC50

- Cn1cc(Nc2ncc(Cl)c(NC3CCC4(CC3)CCN(C(=O)CC#N)C4)n2)cn1 (single isomer, unassigned) [Ex. 14A]: 39 nM
- CC(=O)N1CCC2(CCC(Nc3nc(Nc4cnn(C)c4)ncc3Cl)CC2)CC1 [Ex. 28]: 47 nM

###

test: Pharmacokinetics after intravenous and oral administration in rats; assay type: in vivo; settings: rat, plasma, iv dosing, dose 1 mg/kg (Ex. 27: 0.72 mg/kg)
Listing: half-life of selected compounds
measured parameter: half-life

- Cn1cc(Nc2ncc(Cl)c(NC3CC4CN(c5ccc(C#N)cn5)CC4C3)n2)cn1 (centres unmarked) [Ex. 33]: 147 min
- CN(c1nc(Nc2cnn(C)c2)ncc1Cl)C1CCC2(CC1)CCN(C(=O)CC#N)C2 (single isomer, unassigned) [Ex. 4A]: 51.6 min
- COc1cnc(Nc2cc(C3CC3)[nH]n2)nc1NC1CC2CN(C(=O)CC#N)CC2C1 (centres unmarked) [Ex. 52]: 19.2 min
- Cc1nn(C)cc1Nc1ncc(Cl)c(NC2CC3CN(C(=O)CC#N)CC3C2)n1 (centres unmarked) [Ex. 64]: 24.6 min
- CN(c1nc(Nc2cnn(C)c2)ncc1Cl)C1CCC2(CCNC2)CC1 (single isomer, unassigned) [Ex. 3.10A]: 163 min
- N#CCC(=O)N1CC2CC(Nc3nc(Nc4cnn(CC5CC5)c4)ncc3Cl)CC2C1 (centres unmarked) [Ex. 46]: 28.8 min
- CN(c1nc(Nc2cnn(C)c2)ncc1Cl)C1CC2CN(C(=O)CC#N)CC2C1 (centres unmarked) [Ex. 69]: 28.2 min
- Cn1cc(Nc2ncc(Cl)c(NC3CC4CN(S(C)(=O)=O)CC4C3)n2)cn1 (centres unmarked) [Ex. 31]: 39.6 min

Where do these numbers come from? They come from patent US9403801B2.
